Quick reference for hERG current change (%, negative = inhibition) at 10uM among some compounds
molecular target: human ether-à-go-go-related gene (hERG) potassium channel (human, UniProt Q12809); assay: primary screen, population patch clamp on CHO cells stably expressing hERG; higher = less effect of the substance;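 further: peak tail current of the secondary pulse compared with the same well before compound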
Sequence (Q12809 whole entry, looked up): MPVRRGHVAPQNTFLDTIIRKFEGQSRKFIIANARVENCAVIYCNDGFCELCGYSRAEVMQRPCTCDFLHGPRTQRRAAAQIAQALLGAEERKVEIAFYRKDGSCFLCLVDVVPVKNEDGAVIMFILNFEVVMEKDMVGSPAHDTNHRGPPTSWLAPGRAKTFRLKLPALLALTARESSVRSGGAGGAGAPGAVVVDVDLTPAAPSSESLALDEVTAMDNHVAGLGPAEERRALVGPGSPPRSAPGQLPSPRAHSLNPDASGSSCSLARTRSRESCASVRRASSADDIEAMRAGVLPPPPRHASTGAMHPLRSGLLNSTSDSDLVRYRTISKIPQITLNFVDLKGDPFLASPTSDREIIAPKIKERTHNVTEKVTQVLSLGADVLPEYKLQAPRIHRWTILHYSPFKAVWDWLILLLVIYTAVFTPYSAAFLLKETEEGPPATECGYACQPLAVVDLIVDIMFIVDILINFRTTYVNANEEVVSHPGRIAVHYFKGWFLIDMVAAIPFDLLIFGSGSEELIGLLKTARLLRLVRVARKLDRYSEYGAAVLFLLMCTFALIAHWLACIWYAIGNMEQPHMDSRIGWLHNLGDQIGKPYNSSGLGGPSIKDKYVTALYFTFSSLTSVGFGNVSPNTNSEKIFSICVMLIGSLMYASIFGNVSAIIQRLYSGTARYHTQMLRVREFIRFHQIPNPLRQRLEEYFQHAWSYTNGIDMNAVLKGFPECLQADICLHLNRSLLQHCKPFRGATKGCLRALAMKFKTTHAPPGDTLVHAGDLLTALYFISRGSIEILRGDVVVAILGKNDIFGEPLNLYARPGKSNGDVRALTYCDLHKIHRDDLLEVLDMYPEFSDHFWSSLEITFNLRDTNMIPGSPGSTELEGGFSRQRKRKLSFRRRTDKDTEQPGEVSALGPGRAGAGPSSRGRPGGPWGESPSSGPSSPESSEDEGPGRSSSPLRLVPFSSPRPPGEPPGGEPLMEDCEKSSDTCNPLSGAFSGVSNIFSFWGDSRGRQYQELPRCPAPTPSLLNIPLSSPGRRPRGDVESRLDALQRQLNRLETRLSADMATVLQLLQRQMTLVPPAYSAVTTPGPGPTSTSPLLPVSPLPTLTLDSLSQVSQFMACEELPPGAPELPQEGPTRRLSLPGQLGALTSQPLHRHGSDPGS
Hit rate of the full screen: of about 310,000 compounds, about 14,000 (4.5%) showed an effect of 50% or more. The effect is printed as a negative number. The sample as a whole holds a higher share of strong results than the screen did.
State the answer as a number, implicitly in %.

q: // returns reported hERG current change (%, negative = inhibition) at 10uM for input Nc1ccccc1NC(=O)c1ccccc1
a: 2.34

q: What hERG current change (%, negative = inhibition) at 10uM value was documented for this compound, O=C(NCCCN1CCOCC1)c1cccc(S(=O)(=O)Nc2ccc(F)cc2)c1 ?
a: -23.3
